Measured values drawn from patent US20160108118A1 for this set.

This section presents binders with their documented Ratio values.
Target: T1, Human CXCL10-His (human, UniProt P02778 22-98)
T1 construct: also called hCXCL10; recombinant human CXCL10 protein; not shown: His tag (named CXCL10-His)
T1 sequence (looked up): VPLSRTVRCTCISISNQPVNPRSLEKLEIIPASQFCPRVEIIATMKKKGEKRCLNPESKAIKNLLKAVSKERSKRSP
Assay: phage ELISA, CXCL10/a-myc

scFv-phage clone 10D (scFv) scFv: QVQLVQSGGGVVQPGRSLRLSCAASGFTFSSYGMHWVRQAPGKGLEWVAVISYDGSNKYYADSVKGRFTISRDNSKNTLYLQMNSLRSEDTAVYYCARDKRAAFDIWGQGKMVTVSSGLGGLGGGGSGGGGSGGSSGVGSSYELTQAPSLSVSPGQTANIICSGDNLRTKYVSWYQQKPGQSPLLVIYQDTRRPSGIPARFSGSNSGNTATLTISGTQTERESTYYCMTWDVDTTSMIFGGGTKLTVL ... 0.945

Query string: Can you share its Ratio? I mean this binder: scFv-phage clone 9E (scFv) QVQLVESGGGVVQPGRSLRLSCAASGFTFSSYGMHWVRQAPGKGLEWVAVISYDGNNKYYVDSVKGRFTISRDNSKNTLYLQMNSLRSEDTAVYYCARDSGSYLDWYFDLWGRGTLVTVSSQPPSVSVAPGKTARIACGGGNIGDKSVHWYQQKPGQAPVLVIFYDSDRPSGIPKRLSGSNSGNTATLTISRVEAGDEGDYYCQVWDSSSDRPVFGGGTKLTVLG
Result string: 1.48

Query string: Can you share its Ratio? I mean this binder: scFv-phage clone 10E (scFv, also called E10 scFv) scFv: QVQLVQSGGGVVQPGRSLRLSCAASGFTFNSYGMHWVRQAPGKGPEWVAVISYDGNSKYYADSVKGRFTISRDNSKTTLYLQMNSLRSEDTAVYYCARDSGSYLDWYFDLWGRGTLVTVSSGLGGLGGGGSGGGGSGGSSGVGSQFVLTQPPSVSGAPGQRVTISCTGSRSNFGAGHDVHWYQQLPGTAPKLLIYGNNNRPSGVPDRFSGSKSGTSASLAITGLQAEDEADYYCQSYDSRLGVVFGGGTKLTVL
Result string: 9.95
